- tested target: human EDG-1 (S1P1) (Homo sapiens)
- Sequence (P21453 whole entry): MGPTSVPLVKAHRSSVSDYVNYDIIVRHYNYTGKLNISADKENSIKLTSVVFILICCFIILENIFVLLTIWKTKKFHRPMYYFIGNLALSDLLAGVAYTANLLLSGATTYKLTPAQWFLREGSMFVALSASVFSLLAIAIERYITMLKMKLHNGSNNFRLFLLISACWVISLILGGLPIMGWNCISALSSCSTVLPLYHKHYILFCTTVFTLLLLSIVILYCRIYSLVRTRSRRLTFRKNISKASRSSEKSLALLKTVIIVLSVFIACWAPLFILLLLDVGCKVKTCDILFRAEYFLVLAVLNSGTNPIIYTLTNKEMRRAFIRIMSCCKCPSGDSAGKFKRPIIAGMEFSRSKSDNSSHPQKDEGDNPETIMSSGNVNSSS
- experiment description: GTP [γ-35S] binding assay, membranes from CHO cells expressing human EDG-1
- condition: EDG-1 GTP [γ-35S] binding, CHO cell membranes
- Protocol: A. In Vitro: GPCR Activation Assay Measuring GTP [γ-^35S] Binding to Membranes Prepared from Cho Cells Expressing Human EDG Receptors EDG-1 (S1P1) GTP [γ-^35S] binding assay: Homogenized membranes are prepared from CHO cell clones stably expressing a human EDG-1 N-terminal c-myc tag. Cells are grown in suspension in two 850 cm^2 roller bottles for three or fours days before harvesting. […] Protein concentration of the prep is determined using the BCA Protein Assay kit (Pierce) using BSA as standard. […]
experimental endpoint: EC50 (pM)
Answers are plain numbers, in pM.

1) CCc1cc(/C(C)=N/OCc2ccc(C3CCCCC3)c(C(F)(F)F)c2)ccc1CNCCC(=O)O [Example 2]    800

Continue with the next compound.
Problem: Returns the measured EC50 for the input compound. Input: CCc1cc(/C(C)=N/OCc2ccc(C3CCCCC3)c(C(F)(F)F)c2)ccc1CN1CC(C(=O)O)C1 [Example 3]
Solution: 200
